system_name: ΔF508-CFTR (Homo sapiens, UniProt P13569, DEL508-508)
Construct: expressed in transfected cells
Sequence (P13569 with tags, fused parts or gaps DEL508-508): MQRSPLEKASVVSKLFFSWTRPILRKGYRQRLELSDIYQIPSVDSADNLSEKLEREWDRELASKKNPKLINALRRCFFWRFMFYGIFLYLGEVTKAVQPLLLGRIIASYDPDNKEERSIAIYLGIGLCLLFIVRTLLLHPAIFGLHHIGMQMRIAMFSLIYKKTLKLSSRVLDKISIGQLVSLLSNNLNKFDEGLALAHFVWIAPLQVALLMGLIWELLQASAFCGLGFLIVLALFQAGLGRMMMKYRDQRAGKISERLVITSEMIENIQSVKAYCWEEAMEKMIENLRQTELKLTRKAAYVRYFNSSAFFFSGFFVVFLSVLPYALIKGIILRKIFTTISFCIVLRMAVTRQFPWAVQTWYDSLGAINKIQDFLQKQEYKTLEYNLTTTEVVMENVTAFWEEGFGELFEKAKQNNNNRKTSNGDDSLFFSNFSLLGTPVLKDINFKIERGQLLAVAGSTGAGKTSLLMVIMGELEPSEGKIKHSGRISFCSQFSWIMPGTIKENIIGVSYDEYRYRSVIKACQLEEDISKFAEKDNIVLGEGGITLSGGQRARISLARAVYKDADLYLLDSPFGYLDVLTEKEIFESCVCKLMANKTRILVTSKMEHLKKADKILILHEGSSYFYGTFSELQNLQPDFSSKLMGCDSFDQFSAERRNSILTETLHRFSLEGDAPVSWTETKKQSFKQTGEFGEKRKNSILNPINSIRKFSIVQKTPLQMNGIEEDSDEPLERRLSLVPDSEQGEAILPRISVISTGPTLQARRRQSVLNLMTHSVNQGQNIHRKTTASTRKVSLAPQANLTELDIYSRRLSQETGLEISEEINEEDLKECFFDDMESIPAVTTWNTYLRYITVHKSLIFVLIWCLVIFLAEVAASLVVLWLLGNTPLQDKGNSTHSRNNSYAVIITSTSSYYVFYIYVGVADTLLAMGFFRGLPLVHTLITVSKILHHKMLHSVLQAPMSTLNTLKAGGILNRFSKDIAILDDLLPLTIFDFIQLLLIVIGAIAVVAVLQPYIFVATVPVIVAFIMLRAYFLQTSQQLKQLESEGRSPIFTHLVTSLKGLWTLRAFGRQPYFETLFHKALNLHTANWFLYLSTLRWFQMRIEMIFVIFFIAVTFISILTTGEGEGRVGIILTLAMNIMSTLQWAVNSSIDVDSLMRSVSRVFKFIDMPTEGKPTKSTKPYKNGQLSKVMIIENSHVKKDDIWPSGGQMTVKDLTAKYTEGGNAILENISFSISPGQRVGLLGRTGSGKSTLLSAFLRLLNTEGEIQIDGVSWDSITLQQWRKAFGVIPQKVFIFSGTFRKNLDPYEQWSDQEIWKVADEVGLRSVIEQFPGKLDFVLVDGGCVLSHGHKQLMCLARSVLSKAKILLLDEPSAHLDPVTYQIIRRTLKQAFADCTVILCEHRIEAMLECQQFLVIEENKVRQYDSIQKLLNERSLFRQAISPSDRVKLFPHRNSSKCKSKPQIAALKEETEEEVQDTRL
run_description: Membrane potential optical (FRET/VIPR) assay, identification of potentiator compounds
Format: cell-based
study_conditions: Table 3; relative efficacy; assay not given
quantity_kind: % Activity

Here's what some known entries look like.
> print(dat)
                                   compound                               system.name  quantity.kind                  observed
1  CC(=O)Nc1cccc(-c2ccccc2NC(=O)c2c[nH]c3ccccc3c2=O)c1  ΔF508-CFTR (Homo sapiens, UniProt P13569, DEL508-508)     % Activity  ++ (between 25% to 100%)
2  CC(C)c1ccc(NC(=O)OC(C)(C)C)cc1NC(=O)c1c[nH]c2ccccc2c1=O  ΔF508-CFTR (Homo sapiens, UniProt P13569, DEL508-508)     % Activity  ++ (between 25% to 100%)
3   CCCCc1ccc(NC(=O)c2c[nH]c3ccccc3c2=O)cc1  ΔF508-CFTR (Homo sapiens, UniProt P13569, DEL508-508)     % Activity  ++ (between 25% to 100%)
4  O=C(Nc1ccccc1OCc1ccccc1)c1c[nH]c2ccccc2c1=O  ΔF508-CFTR (Homo sapiens, UniProt P13569, DEL508-508)     % Activity  ++ (between 25% to 100%)
5  CC(C)c1c[nH]c2cc(NC(=O)c3c[nH]c4ccccc4c3=O)ccc12  ΔF508-CFTR (Homo sapiens, UniProt P13569, DEL508-508)     % Activity  ++ (between 25% to 100%)
6  O=C(Nc1cc(NS(=O)(=O)CCN2CCOCC2)cc(C(F)(F)F)c1)c1c[nH]c2ccccc2c1=O  ΔF508-CFTR (Homo sapiens, UniProt P13569, DEL508-508)     % Activity  ++ (between 25% to 100%)
7  O=C(Nc1ccc(OC(F)(F)F)c(N2CCCCC2)c1)c1c[nH]c2ccccc2c1=O  ΔF508-CFTR (Homo sapiens, UniProt P13569, DEL508-508)     % Activity  ++ (between 25% to 100%)
8  COc1ccc(-c2ccccc2NC(=O)c2c[nH]c3ccccc3c2=O)c(OC)c1  ΔF508-CFTR (Homo sapiens, UniProt P13569, DEL508-508)     % Activity  ++ (between 25% to 100%)

For each of the compounds below, note its % Activity.
1. O=C(Nc1ccc(C(F)(F)F)cc1Cl)c1c[nH]c2ccccc2c1=O
2. COc1ccc(NC(=O)c2c[nH]c3ccccc3c2=O)c(OC)n1
3. O=C(Nc1ccc2c(c1)NCC2)c1c[nH]c2ccccc2c1=O
4. O=C(Nc1ccccc1-n1cccc1)c1c[nH]c2ccccc2c1=O

Result:
1: ++ (between 25% to 100%); 2: ++ (between 25% to 100%); 3: ++ (between 25% to 100%); 4: +++ (>100%)

For each listed entry, give its % Activity.
1. C[C@H]1CCCN1c1ccc(NC(=O)c2c[nH]c3ccccc3c2=O)c(C(F)(F)F)c1
2. O=C(Nc1ccccc1C(F)(F)F)c1c[nH]c2ccccc2c1=O
3. CSc1ccc(-c2ccccc2NC(=O)c2c[nH]c3ccccc3c2=O)cc1

Result:
1. ++ (between 25% to 100%)
2. ++ (between 25% to 100%)
3. ++ (between 25% to 100%)

# batch size: 2; output % Activity per entry
1. CCC(=O)Nc1cccc(NC(=O)c2c[nH]c3ccccc3c2=O)c1
2. O=C(Nc1ccccc1-c1ccc(OC(F)(F)F)cc1)c1c[nH]c2ccccc2c1=O

Result:
["+ (<25%)", "++ (between 25% to 100%)"]

// input: 2 compounds below; output: % Activity for each
1. O=C(Nc1cc(OCc2ccccc2)c(C2CCCCC2)cc1C(F)(F)F)c1c[nH]c2ccccc2c1=O
2. CC(C)(C)c1cc(C#N)c(NC(=O)c2c[nH]c3ccccc3c2=O)cc1O

Result:
1: ++ (between 25% to 100%); 2: ++ (between 25% to 100%)
